Cited source: patent US20240383908A1

- EXPERIMENTAL_SYSTEM: SHP2 protein (Homo sapiens, UniProt Q06124)
- Sequence (Q06124 1-593): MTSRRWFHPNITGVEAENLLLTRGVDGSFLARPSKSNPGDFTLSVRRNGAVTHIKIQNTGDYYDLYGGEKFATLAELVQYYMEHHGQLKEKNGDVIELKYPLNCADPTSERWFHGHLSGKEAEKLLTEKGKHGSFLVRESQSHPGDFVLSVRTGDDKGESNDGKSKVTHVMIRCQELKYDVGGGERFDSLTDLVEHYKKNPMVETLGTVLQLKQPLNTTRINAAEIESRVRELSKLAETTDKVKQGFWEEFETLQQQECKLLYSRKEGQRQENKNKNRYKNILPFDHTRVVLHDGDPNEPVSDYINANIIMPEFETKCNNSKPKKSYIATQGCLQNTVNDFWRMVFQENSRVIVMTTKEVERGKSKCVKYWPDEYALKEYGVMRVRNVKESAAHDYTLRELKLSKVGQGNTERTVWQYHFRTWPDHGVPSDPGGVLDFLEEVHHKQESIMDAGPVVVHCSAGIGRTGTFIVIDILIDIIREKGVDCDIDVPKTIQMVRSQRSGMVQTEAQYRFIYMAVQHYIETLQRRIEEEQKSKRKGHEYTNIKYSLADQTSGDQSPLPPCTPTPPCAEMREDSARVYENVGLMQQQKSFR
- ASSAY_SUMMARY: Degradation activity on SHP2 protein in MIA Paca-2 cells (Western blot, DC50)
- Type: cell-based
- Parameters: endogenous in cells; host or cells: MIA Paca-2 cells
- ASSAY_SETUP: read-out: Degradation activity for differenct cell lines MIA Paca-2 (DC50)
Consider the following compounds; for each one, report its DC50.

Record request: DC50 value, item Cc1cc(C(=O)Nc2cccc(Sc3cnc(N4CCC(C)(N)CC4)cn3)c2)ccc1N1CCC(N2CC=C(c3ccc(C(=O)NCc4ccc5c(c4)CN(C4CCC(=O)NC4=O)C5=O)cc3)CC2)CC1 (stereo not drawn)
100 to 1000 nM

Try `Cc1ncsc1-c1ccc([C@H](C)NC(=O)[C@@H]2C[C@@H](O)CN2C(=O)[C@@H](NC(=O)c2cnc(N3CCN(CCCCC(=O)Nc4cccc(Sc5cnc(N6CCC(C)(N)CC6)cn5)c4)CC3)nc2)C(C)(C)C)cc1` next.
< 100 nM

Try CC1(N)CCN(c2cnc(Sc3cccc(NC(=O)C4CC45CCC(N4CC=C(c6ccc(C(=O)NCc7ccc8c(c7)CN(C7CCC(=O)NC7=O)C8=O)nn6)CC4)CC5)c3)cn2)CC1 (single isomer, unassigned) [Compound 318] next.
> 1000 nM

###

- EXPERIMENTAL_SYSTEM: SHP2 protein (Homo sapiens)
- ASSAY_SUMMARY: Degradation activity on SHP2 protein in MIA Paca-2 cells (Western blot, DC50)
- Format: cell-based
- Set-up: endogenous in cells; host or cells: MIA Paca-2 cells
- ASSAY_SETUP: read-out: Degradation activity for differenct cell lines MIA Paca-2 (DC50)
Consider the following compounds; for each one, report its DC50.

Record request: DC50 value, item Cc1cc(N2CCC(N3CC=C(c4cnc(C(=O)NCc5ccc6c(c5)CN(C5CCC(=O)NC5=O)C6=O)c(F)c4)CC3)CC2)ccc1C(=O)Nc1cccc(Sc2cnc(N3CCC(C)(N)CC3)cn2)c1 (stereo not drawn) [Compound 438]
< 100 nM

Try C[C@@H]1OCC2(CCN(c3cnc(Sc4cccc(NC(=O)c5ccc(N6CCC(N7CC=C(c8ccc(C(=O)NCc9ccc%10c(c9)CN(C9CCC(=O)NC9=O)C%10=O)nc8)CC7)C6)c(F)c5)c4)cn3)CC2)[C@@H]1N (stereo partly drawn) [Compound 516] next.
< 100 nM

Try Cc1cc(N2CCC(N3CC=C(c4ccc(C(=O)NCc5ccc6c(c5)CN(C5CCC(=O)NC5=O)C6=O)cc4)CC3)CC2)ccc1C(=O)Nc1cccc(Sc2cnc(N3CCC(C)(N)CC3)cn2)c1 (stereo not drawn) [Compound 454] next.
100 to 1000 nM
